// growth lookup, one value per entry
# System: OVCAR-3 ovarian
# assay explanation: NCI-60 one-dose screen, 48 h (100 = growth as untreated, 0 = no growth, -100 = all killed)
# protocol conditions: 10 µM unless noted
About 83,000 compounds went through this panel and 20% of them were active in at least one assay; those are over-represented in the sample as a whole. Active and inactive are the calls of the source. The calls were made as follows: active = growth percent below 10; inactive = the rest.

> print(dat)
                                   molecule      system.name  quantity.measured        data.value
1        COc1cc2nnn3c4ncccc4c(N=O)c3c2cc1OC  OVCAR-3 ovarian             growth   120% (inactive)
2  O=C1CCC(NC(=S)Nc2ccccc2)N1 (stereo unspecified)  OVCAR-3 ovarian             growth   106% (inactive)
3  COc1ccc(/C=N/C2=C(C#N)C(c3ccccc3[N+](=O)[O-])c3ccc4ccccc4c3O2)cc1 (stereo unspecified)  OVCAR-3 ovarian             growth  77.4% (inactive)
4  O=[N+]([O-])c1cccc(-c2nc(-c3ccc(Cl)cc3Cl)cn2-c2ccccc2)c1  OVCAR-3 ovarian             growth   -55.9% (active)
5  Clc1nc(Cl)c2ncn(CCOCCn3cnc4c(Cl)nc(Cl)nc43)c2n1  OVCAR-3 ovarian             growth   -97.4% (active)

I would be grateful if you could share the reported growth for Clc1cc(Cl)cc(N2N=C(c3cccc(Nc4ccncc4)c3)CC2c2ccc3c(c2)OCO3)c1 (stereo unspecified) .
52.3% (inactive)

What do we get for `CN1CCN(C(=O)OCc2nc3c(N4CCOCC4)nc(-c4ccccc4)nc3n2C)CC1` ?
-81.9% (active)

What do we get for `Nc1c(C(=O)Nc2ccc(Cl)cc2)cc(-c2nc3ccccc3s2)c(=O)n1NS(=O)(=O)c1ccc(Cl)cc1` ?
105% (inactive)

What do we get for `COc1ccc(C(=O)c2cc(C)c(OC)c(C)c2)c(OC)c1N(C(=O)C(Cl)Cl)C(=O)C(Cl)Cl` ?
-13.4% (active)

What do we get for CN(C)C(C(N)=O)c1ccc(Cl)cc1 (stereo unspecified) ?
112% (inactive)

What do we get for `Cc1ccc(/C=C/C(=O)c2ccc(N)cc2)c(C)c1` ?
21.7% (inactive)

---

# Test system: K-562 leukemia
# assay explanation: NCI-60 one-dose screen, 48 h (100 = growth as untreated, 0 = no growth, -100 = all killed)
# protocol conditions: 10 µM unless noted
This is part of a sample that, as a whole, favours compounds with a hit. Of some 83,000 tested, about 20% had one in any assay.
// growth lookup, one value per entry
The reply should be a number in %, with the unit left off.

> print(dat)
                                   compound     system.name  quantity.measured  data.value
1  CC(Oc1ccc(C(=O)NS(=O)(=O)C(C)(C)C)cc1C(F)(F)F)c1ccc(Oc2ccccc2)cn1 (stereo unspecified)  K-562 leukemia             growth        34.7
2       CCN(CC)CCSCCCNc1c(C)cnc2cc(Cl)ccc12  K-562 leukemia             growth        5.33
3  Cc1ccc(C(=O)Nc2ccccc2C(=O)N/N=C(\c2ccccc2)c2ccccn2)cc1  K-562 leukemia             growth        19.9
4    O=C1Nc2c(ccc(Cl)c2Cl)/C1=C/c1ccc(O)cc1  K-562 leukemia             growth        91.9
5  O=C(Nc1ccc2cc3ccc(NC(=O)N4CCCCCC4)cc3nc2c1)N1CCCCCC1  K-562 leukemia             growth       -11.1
6  c1ccc(-c2nnc(Nc3ccc4c(c3)OCCO4)o2)c(NCc2ccncc2)c1  K-562 leukemia             growth        12.1
7            CC(C)(C#N)N1CCN(c2ccccc2Cl)CC1  K-562 leukemia             growth        96.4
8  COc1cc2nc(-c3ccc(C(F)(F)F)cc3)cc(OCCCN3CCC(O)CC3)c2cc1OC  K-562 leukemia             growth        6.21

I would be grateful if you could share the reported growth for `COc1cc(C(=O)c2cnc(-c3ccc4cc[nH]c4c3)[nH]2)cc(OC)c1OC` .
8.98

What do we get for `C=Cc1cc[n+](CCCCCCCCCCCC)cc1` ?
93.8
